Data credit: PubChem BioAssay

Quick list: z-score per entry.
# RUN DESCRIPTION: Primary imaging screen for DUSP6 inhibitors that restore phospho-Erk in transfected HeLa cells, chemical complementation (AID 609)
# RECORDED CONDITIONS: HeLa MKP-3 transfected, phospho-Erk imaging KS statistic; measured here: nuclear c-Myc green intensity z-score; at 10 µM; cells stimulated with TPA for 15 min
Give a plain numeric answer without units written out.

Check out these entries, answers already filled in.
O=c1/c(=C/c2ccccn2)sc2n1CN(c1ccccc1)CN=2 = 0.58
CC(C)C[C@H]1C(=O)N2CCC[C@H]2[C@]2(O)O[C@](NC(=O)[C@@H]3C=C4c5cccc6[nH]c(Br)c(c56)CC4N(C)C3)(C(C)C)C(=O)N12 (some centres not stated) = -0.999
CCOC(=O)C1=C(C)NC(C)=C(C(=O)OC)C1c1cccc([N+](=O)[O-])c1 (configuration not stated) = 0.446

So, `COc1ccc(-c2coc3cc(O)cc(O)c3c2=O)cc1` ? Its z-score was 0.921

So, `Clc1ccc(Cn2c(CN3CCCC3)nc3ccccc32)cc1` ? Its z-score was 0.404

So, `Cc1cc(C(C)(C)C)c(O)c(C)c1CC1=NCCN1` ? Its z-score was 0.896

So, `Cc1cccc(Nc2ccccc2C(=O)O)c1C` ? Its z-score was 0.675

So, `CCC(=O)Oc1oc(-c2ccccc2)nc1C=Nc1ccccc1OC` ? Its z-score was 0.248

So, `CNC(=O)Oc1ccc2c(c1)[C@]1(C)CCN(C)[C@@H]1N2C` ? Its z-score was -0.577

So, `O=C(O)CCC(=O)Nc1ccc(S(=O)(=O)Nc2nccs2)cc1` ? Its z-score was 2.12

So, CC1(c2cnc(Nc3ccccc3)s2)CCC(=O)O1 (configuration not stated) ? Its z-score was -0.905

So, `CC(=O)Oc1oc(-c2ccccc2)nc1/C=N/c1ccccn1` ? Its z-score was 1.34

----------
# RUN DESCRIPTION: blockers of RIG-like receptor reporter activation – cell-based, Sendai virus stimulus, luciferase, 10K MLSCN set, TLR/RLR signaling modifier project, primary screen (AID 602276);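 note: firefly luciferase from ISG56 promoter only with Renilla not read in this screen; 0% = Sendai virus plus DMSO and 100% = medium plus DMSO without virus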
# RECORDED CONDITIONS: HEK293 RL24 IRF3 luciferase reporter, at 10 µM, stronger effect = higher value
The source made the active and inactive calls.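 Rule for the calls: active = inhibition at or above 50% at 10 µM; inactive = inhibition below 50%.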
MEASURED QUANTITY: inhibition

Check out these entries, answers already filled in.
COCCCNC(=O)c1ccc2c(c1)OCO2 = -10.8% (inactive)
Cc1ccc2[nH]c(=O)c(CN(CCc3ccccc3)Cc3nnnn3CC3CCCO3)cc2c1 (configuration not stated) = -7.83% (inactive)
CCCCOc1ccc(-c2nnn(CC(=O)Nc3ncc(CC(=O)OCC)s3)n2)cc1 = 13.5% (inactive)
COC(=O)c1[nH]c(C)c(/C(O)=C2\C(=O)C(=O)N(CCN(C)C)C2c2ccccc2OC)c1C (configuration not stated) = -8.53% (inactive)
CCc1cccc2c(=O)c(C(=O)NCCN3CCOCC3)c[nH]c12 = 1.65% (inactive)

So, `C=CCSc1nnc(-c2ccccc2NC(C)=O)c(=O)[nH]1` ? Its inhibition was -0.29% (inactive)

So, COCC(=O)Nc1sc2c(c1C(=O)OC)C(C(=O)OC)CC2 (configuration not stated) ? Its inhibition was -8.7% (inactive)

So, `Cc1ccccc1C(=O)N1CCC(C(=O)Nc2ccc(S(=O)(=O)N3CCCC3)cc2)CC1` ? Its inhibition was 8.84% (inactive)

So, `O=C(Cn1cnc2sc(-c3ccccc3)cc2c1=O)N1CCOCC1` ? Its inhibition was 6.22% (inactive)

So, `Cc1cc2c(=O)n(CC(=O)N3CCN(c4ccccc4)CC3)cnc2s1` ? Its inhibition was 7.52% (inactive)

So, `O=C(c1ccco1)N1CCN(C(=O)C2CCN(S(=O)(=O)c3cccc4nsnc34)CC2)CC1` ? Its inhibition was 8.36% (inactive)

So, `COc1ccc2cnn(-c3ccccc3)c(=O)c2c1OC` ? Its inhibition was -4.11% (inactive)

So, COCCn1c(SCC(=O)c2ccccc2)nc2c(c1=O)SC(C)C2 (configuration not stated) ? Its inhibition was 1.47% (inactive)

So, `CCOC(=O)N1CCN(CC(=O)Nc2c(C(=O)OC)[nH]c3cccc(Cl)c23)CC1` ? Its inhibition was 20% (inactive)

So, `Cc1ccc(CNC(=O)C2CCN(S(=O)(=O)c3c(C)noc3C)CC2)cc1` ? Its inhibition was -1.36% (inactive)

So, `O=C(Cn1cnc2c(oc3ccccc32)c1=O)N1CCN(c2ccccc2)CC1` ? Its inhibition was 10.1% (inactive)

----------
# RUN DESCRIPTION: inhibitors of TNFa-induced NFkB p65 translocation, primary screen, imaging, HUVEC, MLSMR starter and 10KST1 sets (AID 438);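 note: compound added about 3h40 before a 20 min TNFalpha stimulation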
# RECORDED CONDITIONS: HUVEC TNFa-induced p65 nuclear translocation; measured here: nuclei count (cytotoxicity indicator), at 2.08 µM
MEASURED QUANTITY: cell count
Give a plain numeric answer without units written out.

Check out these entries, answers already filled in.
Cc1onc(-c2c(Cl)cccc2Cl)c1C(=O)NCCCN1CCOCC1 = 618
CC(C)(C)Nc1nc(OCC(F)(F)F)nc(OCC(F)(F)F)n1 = 448
O=C(O)CCCNS(=O)(=O)c1ccc(NCc2ccccc2)c(C(=O)O)c1 = 687
COc1ccc(CCNC(=O)c2nc3ncccn3n2)cc1OC = 643

So, `Cc1cc(NC(=O)CN2CCC(O)(c3cccc(F)c3)CC2)no1` ? Its cell count was 584

So, `CCOC(=O)c1sc2nc(C)cc(C)c2c1N` ? Its cell count was 443

----------
# RUN DESCRIPTION: blockers of RIG-like receptor reporter activation – cell-based, Sendai virus stimulus, luciferase, 10K MLSCN set, TLR/RLR signaling modifier project, primary screen (AID 602276);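 note: firefly luciferase from ISG56 promoter only with Renilla not read in this screen; 0% = Sendai virus plus DMSO and 100% = medium plus DMSO without virus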
# RECORDED CONDITIONS: HEK293 RL24 IRF3 luciferase reporter, at 10 µM, stronger effect = higher value
Tag: Fulfilled if measured inhibition is not below 10%, Not fulfilled if it is.

CN(C)c1nc(N)nc(CSc2nnnn2-c2cccc3ccccc23)n1 = Fulfilled
CN(C)CCCN1c2ccccc2Sc2ccc(C(F)(F)F)cc21 = Fulfilled
CCn1c(CSc2ncccn2)nnc1SCC(=O)N1c2ccccc2CC1C (stereo not drawn) = Fulfilled
CCCCNC(=O)c1cc(-c2ccc(F)cc2)on1 = Not fulfilled
O=C1CC(c2cccc(Cl)c2)CC(O)=C1C=NCCCO (stereo not drawn) = Fulfilled

Incoming: Given the entry `c1ccc(OCCOc2ncnc3sccc23)cc1` , answer whether its inhibition meets or surpasses 10%.
Outgoing: Not fulfilled

Incoming: Given the entry `Oc1ccc(-c2onc(C(F)(F)F)c2-c2cscn2)c(O)c1` , answer whether its inhibition meets or surpasses 10%.
Outgoing: Fulfilled

Incoming: Given the entry `Cc1ccc(OC(=O)CCc2c(C)nc3ncnn3c2C)cc1` , answer whether its inhibition meets or surpasses 10%.
Outgoing: Not fulfilled

----------
Quick list: inhibition per entry.
# RUN DESCRIPTION: blockers of RIG-like receptor reporter activation – cell-based, Sendai virus stimulus, luciferase, 10K MLSCN set, TLR/RLR signaling modifier project, primary screen (AID 602276);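 note: firefly luciferase from ISG56 promoter only with Renilla not read in this screen; 0% = Sendai virus plus DMSO and 100% = medium plus DMSO without virus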
# RECORDED CONDITIONS: HEK293 RL24 IRF3 luciferase reporter, at 10 µM, stronger effect = higher value
Output spec: scalar in %, unitless text.

Cc1nnc(NC(=O)Nc2cccc(Cl)c2)s1 = -25

So, `CCN(CC)S(=O)(=O)c1ccc2oc(C(=O)O)c(C)c2c1` ? Its inhibition was 5.96

So, `O=C(C1CCN(S(=O)(=O)c2cnc[nH]2)CC1)N1CCN(c2ncccn2)CC1` ? Its inhibition was -35.5

So, `CC(C)CCn1c(SCC#N)nc2c(sc3ccccc32)c1=O` ? Its inhibition was 6.8

So, `CCOC(=O)CSc1nc2ccccc2n2cnnc12` ? Its inhibition was 2.3

----------
# RUN DESCRIPTION: loss of swimming-algae plug formation – whole organism, Chlamydomonas reinhardtii, WT vs cilia-less mutant, absorbance, 96-well, primary screen (AID 463189);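 note: 0% = wild type cc124 cells in DMSO and 100% = ciliumless bld1 mutant cells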
# RECORDED CONDITIONS: Chlamydomonas reinhardtii gravitaxis, OD600 absorbance, 2 days; at 10 µM; stronger effect = higher value
Quick list: inhibition per entry.
Output spec: scalar in %, unitless text.

Check out these entries, answers already filled in.
NCCS(=O)(=O)O = 8.8
Cc1cc(N/C=C/C(=O)c2cccc3ccccc23)no1 = -11.1
c1ccc(CN2CCC3(CCCc4ccccc43)CC2)cc1 = 89
CCCn1cnc2c1c(=O)n(CCCCC(C)=O)c(=O)n2C = 3.15
NC(=NCc1ccccc1)NC(=O)c1nc(Cl)c(N)nc1N = -1.5
COc1cc(C(=O)NCC(=O)n2nc(C)cc2C)cc(OC)c1OC = -4.24

In the following, a different molecule is considered.
So, `O=C(O)C1=CCNCC1` ? Its inhibition was 0.676
